Catalogue of GI50 values
- System: NCI-H460 lung

Please review the following examples before continuing.
Compound: COC(=O)c1ccc2c(c1)C(=O)c1c-2n(C)c(=O)c2cc(OC)c(OC)cc12
GI50: > 50 µM
//
Compound: C1COCCOCCOCCOCCOCCO1.[Cl][Sn]([Cl])([c]1ccccc1)[c]1ccccc1
GI50: 15.1 µM
//
Compound: O=C(c1ccco1)c1c(C(F)(F)F)nc2ccc(C(F)(F)F)cc2[n+]1[O-]
GI50: > 63.2 µM

Next up:
Can you look up GI50 on NCI-H460 lung for CCCC[n+]1c(/C=C\c2c(OC)cc(OC)cc2OC)ccc2ccccc21 ?
0.574 µM

Where do these numbers come from? They come from PubChem BioAssay (NCI).
